Protocol: AUC (0 to infinity) in BALB/c mouse at 50 mg/kg,po measured upto 24 hrs by HPLC-MS/MS analysis
Assay type: ADME, organism-based
Condition Details: in vivo
Experimental Readout: AUC(0-inf)

1) CCN(c1cc(-c2ccc([C@@H]3C[C@H]3N(CC3CCOCC3)C(=O)OC(C)(C)C)cc2)cc(C(=O)NCc2c(C)cc(C)[nH]c2=O)c1C)C1CCOCC1 (racemic)	41400 ng·h/mL

----------
Protocol: Metabolic stability in Sprague-Dawley rat hepatocyte assessed as compound remaining at 20 uM incubated for 30 mins by HPLC-MS/MS analysis
Format: ADME, cell-based
Condition Details: hepatocytes, read-out: Stability
Experimental Readout: remaining at 0.5 h, 20 µM (%)

1) CCN(c1cc(-c2ccc([C@@H]3C[C@H]3N(CC3CCOCC3)C(=O)OC(C)(C)C)cc2)cc(C(=O)NCc2c(C)cc(C)[nH]c2=O)c1C)C1CCOCC1 (racemic)	93
